Recorded pIC50 values for a group of compounds are listed next.
Sequence of the target: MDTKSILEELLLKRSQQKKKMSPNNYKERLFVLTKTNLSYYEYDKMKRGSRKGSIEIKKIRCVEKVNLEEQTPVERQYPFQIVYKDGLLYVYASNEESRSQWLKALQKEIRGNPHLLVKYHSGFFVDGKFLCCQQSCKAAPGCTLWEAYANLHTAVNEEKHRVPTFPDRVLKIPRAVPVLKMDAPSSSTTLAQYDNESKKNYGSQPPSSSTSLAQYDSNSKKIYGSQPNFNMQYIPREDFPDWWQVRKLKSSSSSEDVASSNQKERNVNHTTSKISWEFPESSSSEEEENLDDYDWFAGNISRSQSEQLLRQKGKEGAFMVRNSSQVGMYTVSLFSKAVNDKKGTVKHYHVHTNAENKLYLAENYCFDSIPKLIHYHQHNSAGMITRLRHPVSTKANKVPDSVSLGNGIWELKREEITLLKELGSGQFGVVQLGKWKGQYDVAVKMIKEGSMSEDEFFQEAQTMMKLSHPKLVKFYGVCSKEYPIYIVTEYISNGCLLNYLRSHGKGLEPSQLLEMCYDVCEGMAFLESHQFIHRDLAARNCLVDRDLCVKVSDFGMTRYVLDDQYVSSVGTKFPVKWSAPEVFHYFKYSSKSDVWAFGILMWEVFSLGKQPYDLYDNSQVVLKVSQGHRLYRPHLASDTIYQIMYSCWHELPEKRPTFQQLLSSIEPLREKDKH
pIC50: −log10 of the molar value.

- Compound: "CC(C)(C)c1ccc(C(=O)Nc2ccc(-c3ccnc4[nH]nc(N[C@@H]5CCNC5)c34)cc2F)cc1 [Compound 42]"
  pIC50: "< 5.00"
- Compound: "C[C@H](NC(=O)c1noc(C(C)(C)C)n1)c1ccc(-c2ccnc3[nH]nc(N[C@@H]4CCNC4)c23)cc1 [Example 72]"
  pIC50: "< 5.00"

Proceed to the following item.
Query block: pIC50 for CC(C)(C)c1ccc(C(=O)NCc2cc(F)cc(-c3ccnc4[nH]nc(N[C@@H]5CCNC5)c34)c2)cc1 [Example 75] ?
Result block: < 5.00

----------
Recorded pIC50 values for a group of compounds are listed next.
molecular target: Btk (Homo sapiens, UniProt Q06187); construct: purified from insect cells as a full-length construct containing a N-terminal 6X-His tag; His6 (N); made in house; host or cells: insect cells (Method C); experiment: Btk in vitro inhibitory activity (one of Method A TR-FRET, Method B electrophoretic mobility shift, Method C radiometric filter binding); type: biochemical; settings: wild-type Btk; read-out: Btk-WT IC50
Sequence (Q06187 whole entry): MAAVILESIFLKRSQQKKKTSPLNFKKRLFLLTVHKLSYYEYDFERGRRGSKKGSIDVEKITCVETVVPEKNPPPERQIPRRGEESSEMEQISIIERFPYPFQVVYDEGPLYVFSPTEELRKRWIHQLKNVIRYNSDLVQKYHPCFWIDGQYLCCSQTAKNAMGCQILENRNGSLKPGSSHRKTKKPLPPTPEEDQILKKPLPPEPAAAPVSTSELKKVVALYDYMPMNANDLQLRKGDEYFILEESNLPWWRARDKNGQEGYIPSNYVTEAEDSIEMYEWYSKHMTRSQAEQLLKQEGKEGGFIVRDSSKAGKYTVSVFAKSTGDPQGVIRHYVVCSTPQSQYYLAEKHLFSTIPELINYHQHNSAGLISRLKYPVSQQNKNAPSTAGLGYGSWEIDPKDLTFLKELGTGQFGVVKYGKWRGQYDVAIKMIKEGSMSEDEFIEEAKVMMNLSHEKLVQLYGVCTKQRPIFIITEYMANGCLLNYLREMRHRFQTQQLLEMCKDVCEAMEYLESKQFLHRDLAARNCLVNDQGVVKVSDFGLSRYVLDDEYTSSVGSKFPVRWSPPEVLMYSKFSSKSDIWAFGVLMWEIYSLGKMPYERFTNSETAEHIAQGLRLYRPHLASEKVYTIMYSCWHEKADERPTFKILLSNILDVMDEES
Formally, pIC50 is defined as -log10 of the concentration c, with c in mol/L.

- Compound: "CN(C)C/C=C/C(=O)N[C@@H]1CCN(c2n[nH]c3nccc(-c4ccc(CNC(=O)c5cc(C(C)(C)C)on5)c(F)c4)c23)C1 [Example 309]"
  Test System: "Btk (Homo sapiens, UniProt Q06187)"
  pIC50: 9.36
- Compound: "CC#CC(=O)N1CC(Nc2n[nH]c3nccc(-c4ccc(CNC(=O)c5noc(C(C)(C)C)n5)c(F)c4)c23)C1 [Example 131]"
  Test System: "Btk (Homo sapiens, UniProt Q06187)"
  pIC50: 9.70

Query block: pIC50 for C=CC(=O)N1CC[C@@H](Nc2n[nH]c3nccc(-c4ccc(CNC(=O)N5CCCCC5)c(F)c4)c23)C1 [Example 375] ?
Result block: 7.66

Query block: pIC50 for C=CC(=O)N[C@@H]1CCN(c2n[nH]c3nccc(-c4ccc(CNC(=O)c5ccc(C(C)(C)C)cc5)c(F)c4)c23)C1 [Example 101] ?
Result block: 9.66

Query block: pIC50 for C[C@@H](NC(=O)c1nc(C(C)(C)C)no1)c1ccc(-c2ccnc3[nH]nc(NC4CCCCC4)c23)cc1 [Example 202] ?
Result block: 7.51

----------
target: TEC (Homo sapiens, UniProt P42680); test: Inhibition of a panel of kinases (in vitro HotSpot kinase assay, 33P-ATP, 1 μM ATP); type: biochemical; details: ratio of TEC IC50 to Btk IC50 (selectivity)
Endpoint Name: TEC/Btk

Worked cases, answers included:
- Structure Notation: "CC(C)(C)c1nc(C(=O)NC2(c3ccc(-c4ccnc5[nH]nc(N[C@@H]6CCCNC6)c45)cc3)CC2)no1"
  TEC/Btk: ">100"
- Structure Notation: "CC(C)(C)c1nc(C(=O)NCc2ccc(-c3ccnc4[nH]nc(N[C@@H]5CCNC5)c34)cc2)no1"
  TEC/Btk: ">100"

Proceed to the following item.
Query block: TEC/Btk for CC(C)(C)c1nc(C(=O)NCc2ccc(-c3ccnc4[nH]nc(N[C@@H]5CCNC5)c34)c(F)c2)no1 ?
Result block: >100

----------
Target: TEC (Homo sapiens, UniProt P42680)
Sequence (P42680 1-631): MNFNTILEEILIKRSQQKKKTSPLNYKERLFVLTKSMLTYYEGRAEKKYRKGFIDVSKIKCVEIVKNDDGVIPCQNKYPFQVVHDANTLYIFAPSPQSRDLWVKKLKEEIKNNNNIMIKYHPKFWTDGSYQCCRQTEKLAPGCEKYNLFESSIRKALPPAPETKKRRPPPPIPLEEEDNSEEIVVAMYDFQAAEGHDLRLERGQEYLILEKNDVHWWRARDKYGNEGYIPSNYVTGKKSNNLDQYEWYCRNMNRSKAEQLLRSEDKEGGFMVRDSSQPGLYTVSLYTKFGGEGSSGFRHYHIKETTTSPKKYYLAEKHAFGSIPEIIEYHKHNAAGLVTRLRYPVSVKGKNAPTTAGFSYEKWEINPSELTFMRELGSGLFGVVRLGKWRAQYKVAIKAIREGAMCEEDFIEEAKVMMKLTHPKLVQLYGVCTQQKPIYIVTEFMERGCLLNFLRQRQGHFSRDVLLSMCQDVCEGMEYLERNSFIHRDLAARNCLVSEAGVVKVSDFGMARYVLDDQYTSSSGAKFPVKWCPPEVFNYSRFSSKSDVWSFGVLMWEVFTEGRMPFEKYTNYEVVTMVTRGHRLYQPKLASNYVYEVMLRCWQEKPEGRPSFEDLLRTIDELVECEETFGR
Test: Inhibition of a panel of kinases (in vitro HotSpot kinase assay, 33P-ATP, 1 μM ATP)
Type: biochemical
Conditions: ratio of TEC IC50 to Btk IC50 (selectivity)
Endpoint Name: TEC/Btk
Write the value as a bare number.

Query block: Lookup: TEC/Btk / TEC (Homo sapiens, UniProt P42680) / C=CC(=O)N1CC[C@@H](Nc2n[nH]c3nccc(-c4ccc(CNC(=O)c5ccc(C6CC6)cc5)c(F)c4)c23)C1
Result block: 37

----------
Recorded pIC50 values for a group of compounds are listed next.
Target: panel of kinases (Homo sapiens)
Sequence (P51813 1-675): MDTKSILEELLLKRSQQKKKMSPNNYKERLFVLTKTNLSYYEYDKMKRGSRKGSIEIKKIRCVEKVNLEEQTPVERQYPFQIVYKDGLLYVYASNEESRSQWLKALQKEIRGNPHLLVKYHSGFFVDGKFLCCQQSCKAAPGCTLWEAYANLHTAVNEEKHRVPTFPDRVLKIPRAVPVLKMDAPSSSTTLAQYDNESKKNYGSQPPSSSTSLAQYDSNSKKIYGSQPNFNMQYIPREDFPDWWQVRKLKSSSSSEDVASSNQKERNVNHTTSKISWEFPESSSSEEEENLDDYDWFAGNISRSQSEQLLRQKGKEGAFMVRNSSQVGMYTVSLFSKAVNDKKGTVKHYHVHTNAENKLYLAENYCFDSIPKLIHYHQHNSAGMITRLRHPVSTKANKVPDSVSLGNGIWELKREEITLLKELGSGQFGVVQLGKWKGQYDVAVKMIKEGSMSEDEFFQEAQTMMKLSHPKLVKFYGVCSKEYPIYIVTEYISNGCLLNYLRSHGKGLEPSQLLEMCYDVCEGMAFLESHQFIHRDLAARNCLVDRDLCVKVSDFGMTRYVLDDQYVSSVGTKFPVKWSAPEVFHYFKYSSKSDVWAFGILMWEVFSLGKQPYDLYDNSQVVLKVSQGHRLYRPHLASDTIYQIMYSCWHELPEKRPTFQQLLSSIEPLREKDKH
Experiment: Inhibition of a panel of kinases (in vitro HotSpot kinase assay, 33P-ATP, 1 μM ATP), other kinases
Type: biochemical
Conditions: BMX wild-type, read-out: BMX-WT IC50
pIC50: −log10 of the molar value.

Query block: pIC50 for CC(C)(C)c1nnc(C(=O)NCc2ccc(-c3ccnc4[nH]nc(N[C@@H]5CCNC5)c34)cc2F)o1 ?
Result block: < 5.00

Query block: pIC50 for CC(C)(C)c1ccc2c(c1)CCN(Cc1ccc(-c3ccnc4[nH]nc(N[C@H]5CC[C@H](O)CC5)c34)cc1F)C2=O ?
Result block: < 5.00

Query block: pIC50 for CC1(C(=O)N2CC[C@@H](Nc3n[nH]c4nccc(-c5ccc(CNC(=O)c6ccc(C7CC7)cc6)c(F)c5)c34)C2)COC1 ?
Result block: < 5.00
